# Test system: Plasmodium falciparum
# procedure.summary: Antiplasmodial activity against chloroquine-sensitive Plasmodium falciparum D10 by parasite lactate dehydrogenase assay
# details: D10, 72 h
pIC50: −log10 of the molar value.
measurement.type: pIC50

compound="CC(C)(C)OC(=O)N1CCN(Cc2ccc(C(c3cccc(Cl)c3)n3ccnc3)cc2)CC1 (racemic)" recorded_number=5.28
compound="Clc1ccc(C(c2ccccc2)(c2ccc(CN3CCOCC3)cc2)n2ccnc2)cc1 (racemic)" recorded_number=6.14
compound="Clc1cccc(C(c2ccc(CN3CCNCC3)cc2)n2ccnc2)c1 (racemic)" recorded_number=6.29
compound="CCN(CC)Cc1ccc(C(c2ccccc2)(c2ccc(Cl)cc2)n2ccnc2)cc1 (racemic)" recorded_number=6.38
compound="Clc1ccc(C(c2ccccc2)(c2ccc(CN3CCCC3)cc2)n2cnc3ccccc32)cc1 (racemic)" recorded_number=5.99
compound="CCN(CC)Cc1ccc(C(c2cccc(Cl)c2)n2ccnc2)cc1 (racemic)" recorded_number=5.72
compound="Clc1ccc(C(c2ccc(CN3CCCC3)cc2)(c2nccs2)n2ccnc2)cc1 (racemic)" recorded_number=6.52
compound="c1ccc2c(C(c3ccc(CN4CCCC4)cc3)n3ccnc3)ccnc2c1 (racemic)" recorded_number=5.13
compound="Clc1cccc(C(c2ccncc2)(c2ccc(CN3CCCC3)cc2)n2ccnc2)c1 (racemic)" recorded_number=5.91
compound="Clc1cccc(C(c2ccc(CN3CCCC3)cc2)(c2cccs2)n2ccnc2)c1 (racemic)" recorded_number=5.14
compound="Clc1ccc2c(C(c3ccc(CN4CCCC4)cc3)n3ccnc3)ccnc2c1 (racemic)" recorded_number=5.79
compound="Clc1ccc(C(c2ccc(CN3CCCC3)cc2)(c2cccs2)n2ccnc2)cc1 (racemic)" recorded_number=5.87
compound="Clc1cccc(C(c2ccc(CN3CCCC3)cc2)(c2nccs2)n2ccnc2)c1 (racemic)" recorded_number=6.32
compound="Fc1ccc(C(c2ccc(CN3CCCC3)cc2)(c2ccnc3cc(Cl)ccc23)n2ccnc2)cc1 (racemic)" recorded_number=7.07
compound="Clc1ccc2c(C(c3ccccc3)(c3ccc(CN4CCCC4)cc3)n3ccnc3)ccnc2c1 (racemic)" recorded_number=6.77
compound="Clc1cccc(C(c2ccc(CN3CCCC3)cc2)(c2ccoc2)n2ccnc2)c1 (racemic)" recorded_number=6.62
